system: COLO 205 colon; test: NCI tumour cell line growth inhibition, 48 h
Consider the following molecules; for each one, report its TGI.

COC(=O)C1(C2CC/C(C)=C/CC/C(C)=C/CC[C@@]3(C)O[C@@H]3C2)CC1 (stereo partly specified); > 100 µM
O=C1/C(=C\c2ccc(F)cc2)CCOc2c1ccc1ccccc21; > 100 µM
COC(=O)C[C@H](COCc1ccccc1)NC(=O)C[C@H](COCc1ccccc1)NC(=O)OC(C)(C)C; > 100 µM
CC(=O)OC1CC[C@@]2(C)C(C1)CC(OC(C)=O)[C@@H]1C2CC(OC(C)=O)[C@]2(C)C(C(C)CC=C(c3ccc(Cl)cc3)c3ccc(Cl)cc3)CCC12 (stereo partly specified); > 100 µM

Give TGI for each listed item.
1. Clc1ccc(C=NC23CC4CC(CC(C4)C2)C3)cc1Cl
2. COc1ccc2c(c1)CC[C@@H]1C2CC[C@]2(C)C(=O)N(N)C(=O)CC12 (stereo partly specified)

Reply:
1. > 10 µM
2. > 100 µM
